Test system: Clostridium perfringens (DSMZ 11778)
PROTOCOL_DETAILS: microbe, parasite or virus in culture
Format: cell-based
ASSAY_SETUP: DSMZ11778
Structures can show the parent of a compound that is named as a salt.
Form field: log10(MIC) (one value per entry).
OBSERVABLE: log10(MIC) (log10 of the value in µg/mL)

O=S(=O)(O)c1cc(I)c(O)c2ncccc12: 1.81
Cc1ncc([N+](=O)[O-])n1CCO: 0.90
Oc1c(Cl)cc(Cl)c2cccnc12: 1.20
Oc1cccc2cccnc12 [8HQ, 8-hydroxyquinoline]: 2.11
C[n+]1cc2c3c(ccc2c2ccc4cc5c(cc4c21)OCO5)OCO3 [SG, sanguinarine chloride]: 2.11
CN[C@H](CC(C)C)C(=O)N[C@H]1C(=O)N[C@@H](CC(N)=O)C(=O)N[C@H]2C(=O)N[C@H]3C(=O)N[C@H](C(=O)N[C@H](C(=O)O)c4cc(O)cc(O)c4-c4cc3ccc4O)[C@H](O)c3ccc(c(Cl)c3)Oc3cc2cc(c3O[C@@H]2O[C@H](CO)[C@@H](O)[C@H](O)[C@H]2O[C@H]2C[C@](C)(N)[C@H](O)[C@H](C)O2)Oc2ccc(cc2Cl)[C@H]1O [VM, vancomycin hydrochloride]: 0.00
CN(C)[C@@H]1C(O)=C(C(N)=O)C(=O)[C@@]2(O)C(O)=C3C(=O)c4c(O)cccc4[C@@](C)(O)[C@H]3C[C@@H]12: 1.51

---

System: E. coli 0175:H7 (NCTC 12900)
PROTOCOL_DETAILS: microbe, parasite or virus in culture
Type: cell-based
ASSAY_SETUP: Escherichia coli, NCTC12900
Counter-ions that a name gives are not always drawn.
OBSERVABLE: MIC

O=S(=O)(O)c1cc(I)c(O)c2ncccc12 [FRN]: > 512 µg/mL
Oc1c(Cl)cc(Cl)c2cccnc12 [CLX, 5,7-dichloroquinolin-8-ol]: 64 µg/mL
CO/N=C(\C(=O)N[C@@H]1C(=O)N2C(C(=O)O)=C(CSc3nc(=O)c(=O)[nH]n3C)CS[C@H]12)c1csc(N)n1 [CF, ceftriaxone sodium]: 0.5 µg/mL
Oc1cccc2cccnc12 [8HQ, 8-hydroxyquinoline]: 256 µg/mL
CN[C@H](CC(C)C)C(=O)N[C@H]1C(=O)N[C@@H](CC(N)=O)C(=O)N[C@H]2C(=O)N[C@H]3C(=O)N[C@H](C(=O)N[C@H](C(=O)O)c4cc(O)cc(O)c4-c4cc3ccc4O)[C@H](O)c3ccc(c(Cl)c3)Oc3cc2cc(c3O[C@@H]2O[C@H](CO)[C@@H](O)[C@H](O)[C@H]2O[C@H]2C[C@](C)(N)[C@H](O)[C@H](C)O2)Oc2ccc(cc2Cl)[C@H]1O [VM, vancomycin hydrochloride]: 512 µg/mL
C[n+]1cc2c3c(ccc2c2ccc4cc5c(cc4c21)OCO5)OCO3 [SG, sanguinarine chloride]: 128 µg/mL
O=C(O)c1ccccc1O [SA, salicylic acid]: > 512 µg/mL
Cc1ncc([N+](=O)[O-])n1CCO [MA, metronidazole]: > 512 µg/mL
O=C(O)c1cn(C2CC2)c2cc(N3CCNCC3)c(F)cc2c1=O [CP, ciprofloxacin]: 0.016 µg/mL
COc1ccc2cc3[n+](cc2c1OC)CCc1cc2c(cc1-3)OCO2 [BR, berberine chloride]: > 512 µg/mL
CN(C)[C@@H]1C(O)=C(C(N)=O)C(=O)[C@@]2(O)C(O)=C3C(=O)c4c(O)cccc4[C@@](C)(O)[C@H]3C[C@@H]12 [TC, tetracycline]: 4 µg/mL
O=[N+]([O-])c1ccc(O)c2ncccc12 [NXL, 5-nitroquinolin-8-ol]: 32 µg/mL

---

System: FHs 74 Int (ATCC CCL 241) intestinal normal cells
PROTOCOL_DETAILS: MTT cytotoxicity assay, FHs 74 Int
Format: cell-based
ASSAY_SETUP: FHs74Int, 72 h, FHs 74 Int (intestinal normal cells), MTT, read-out: IC50 ± SD
Items are presented alongside their recorded IC50.
OBSERVABLE: IC50 (µg/mL)

O=C(N[C@H](CO)[C@H](O)c1ccc([N+](=O)[O-])cc1)C(Cl)Cl [CA, chloramphenicol]: 30.7
COc1ccc2cc3[n+](cc2c1OC)CCc1cc2c(cc1-3)OCO2 [BR, berberine chloride]: 1
O=C(O)c1cn(C2CC2)c2cc(N3CCNCC3)c(F)cc2c1=O [CP, ciprofloxacin]: 51.8
O=C(O)c1ccccc1O [SA, salicylic acid]: 73.2
CN(C)[C@@H]1C(O)=C(C(N)=O)C(=O)[C@@]2(O)C(O)=C3C(=O)c4c(O)cccc4[C@@](C)(O)[C@H]3C[C@@H]12 [TC, tetracycline]: 14.7
Oc1c(Cl)cc(Cl)c2cccnc12 [CLX, 5,7-dichloroquinolin-8-ol]: 0.5
O=S(=O)(O)c1cc(I)c(O)c2ncccc12 [FRN]: 22.6
O=[N+]([O-])c1ccc(O)c2ncccc12 [NXL, 5-nitroquinolin-8-ol]: 0.4

---

Test system: Lactobacillus reuteri (CCM 3625)
PROTOCOL_DETAILS: Broth microdilution MIC, L. reuteri
Type: cell-based
ASSAY_SETUP: Limosilactobacillus reuteri, CCM3625; Lactobacillus reuteri; growth inhibited by ≥80%; read-out: MIC
OBSERVABLE: log10 MIC (log10 of the value in µg/mL)

O=S(=O)(O)c1cc(I)c(O)c2ncccc12: 2.71
Oc1c(Cl)cc(Cl)c2cccnc12: 2.11
Cc1ncc([N+](=O)[O-])n1CCO: 2.41
O=C(O)c1ccccc1O: 2.71
O=[N+]([O-])c1ccc(O)c2ncccc12: 1.20
CO/N=C(\C(=O)N[C@@H]1C(=O)N2C(C(=O)O)=C(CSc3nc(=O)c(=O)[nH]n3C)CS[C@H]12)c1csc(N)n1 [CF, ceftriaxone sodium]: -0.30
O=C(O)c1cn(C2CC2)c2cc(N3CCNCC3)c(F)cc2c1=O: 1.51
CN(C)[C@@H]1C(O)=C(C(N)=O)C(=O)[C@@]2(O)C(O)=C3C(=O)c4c(O)cccc4[C@@](C)(O)[C@H]3C[C@@H]12: 1.51
O=C(N[C@H](CO)[C@H](O)c1ccc([N+](=O)[O-])cc1)C(Cl)Cl: 0.90

---

Tested on: Clostridium difficile (DSMZ 12056)
PROTOCOL_DETAILS: microbe, parasite or virus in culture
Type: cell-based
ASSAY_SETUP: Clostridioides difficile, DSMZ12056; Clostridium difficile; […]; read-out: MIC
Where a name gives a salt, the structure may show the parent alone.
Note to self: use Fulfilled only for MIC readings below 60 µg/mL; a reading exactly at 60 µg/mL still gets Not fulfilled.

CO/N=C(\C(=O)N[C@@H]1C(=O)N2C(C(=O)O)=C(CSc3nc(=O)c(=O)[nH]n3C)CS[C@H]12)c1csc(N)n1 [CF, ceftriaxone sodium]: Not fulfilled
Cc1ncc([N+](=O)[O-])n1CCO: Fulfilled
O=S(=O)(O)c1cc(I)c(O)c2ncccc12: Not fulfilled
O=C(N[C@H](CO)[C@H](O)c1ccc([N+](=O)[O-])cc1)C(Cl)Cl: Fulfilled
CN[C@H](CC(C)C)C(=O)N[C@H]1C(=O)N[C@@H](CC(N)=O)C(=O)N[C@H]2C(=O)N[C@H]3C(=O)N[C@H](C(=O)N[C@H](C(=O)O)c4cc(O)cc(O)c4-c4cc3ccc4O)[C@H](O)c3ccc(c(Cl)c3)Oc3cc2cc(c3O[C@@H]2O[C@H](CO)[C@@H](O)[C@H](O)[C@H]2O[C@H]2C[C@](C)(N)[C@H](O)[C@H](C)O2)Oc2ccc(cc2Cl)[C@H]1O [VM, vancomycin hydrochloride]: Fulfilled
O=[N+]([O-])c1ccc(O)c2ncccc12: Fulfilled
C[n+]1cc2c3c(ccc2c2ccc4cc5c(cc4c21)OCO5)OCO3 [SG, sanguinarine chloride]: Not fulfilled
O=C(O)c1ccccc1O: Not fulfilled

---

Tested on: Clostridium perfringens (DSMZ 11778)
PROTOCOL_DETAILS: microbe, parasite or virus in culture
Format: cell-based
ASSAY_SETUP: DSMZ11778
Parameter: MIC. Scope: all listed entries.
OBSERVABLE: MIC (µg/mL)

O=[N+]([O-])c1ccc(O)c2ncccc12: 4
O=C(N[C@H](CO)[C@H](O)c1ccc([N+](=O)[O-])cc1)C(Cl)Cl: 4
O=C(OC[C@H]1O[C@@H](OC(=O)c2cc(O)c(O)c(OC(=O)c3cc(O)c(O)c(O)c3)c2)[C@H](OC(=O)c2cc(O)c(O)c(OC(=O)c3cc(O)c(O)c(O)c3)c2)[C@@H](OC(=O)c2cc(O)c(O)c(OC(=O)c3cc(O)c(O)c(O)c3)c2)[C@@H]1OC(=O)c1cc(O)c(O)c(OC(=O)c2cc(O)c(O)c(O)c2)c1)c1cc(O)c(O)c(OC(=O)c2cc(O)c(O)c(O)c2)c1: 512
COc1ccc2cc3[n+](cc2c1OC)CCc1cc2c(cc1-3)OCO2 [BR, berberine chloride]: 256
CO/N=C(\C(=O)N[C@@H]1C(=O)N2C(C(=O)O)=C(CSc3nc(=O)c(=O)[nH]n3C)CS[C@H]12)c1csc(N)n1 [CF, ceftriaxone sodium]: 4
